assay: H1N1 influenza NS1A inhibitors, functional cell based assay (AID 504329); details: percent inhibition, at 12.5 µM, stronger effect = higher value
The whole screen tested about 340,000 compounds, of which about 1,000 (0.29%) were called active. These entries were drawn from the full list. Entries with a potency or affinity are not part of this list.
experimental-endpoint: inhibition (%)
State just the number; it will be interpreted in %.

Examples with answers:
compound: O=[N+]([O-])c1ccccc1/C=C/C=N/N1CCCCC1
inhibition / %: 4.44
--
compound: COCCn1c(C)cc(C(=O)COC(=O)CNC(=O)c2ccccc2)c1C
inhibition / %: 4.38
--
compound: O=[N+]([O-])c1ccc(C[n+]2cccc3ccccc32)cc1
inhibition / %: 2.93
--
compound: Cc1cc(C)nc(Nc2nc3ccccc3o2)n1
inhibition / %: -16.8
--
compound: O=[N+]([O-])c1ccccc1/C=N\N1CCN(c2ccccc2)CC1
inhibition / %: 17

Request: Which inhibition is reported for this compound? Cc1nc(SCC(=O)NCc2ccccc2)c2c(=O)n(C)c(=O)n(C)c2n1
Result: -13.1

Request: Input COc1ccc(CCNC(=O)COC(=O)c2ccc(C)s2)cc1
Result: -10

Request: Input C=CCCN(C(C(=O)OC)C(C)C)S(=O)(=O)c1ccccc1Br (stereo unspecified)
Result: -12.7

Request: Input CCOC(=O)N1CCC(NS(=O)(=O)c2cc(Br)cc3c2N(C(=O)CC)CC3)CC1
Result: 7.36

Request: Input O=C(Nc1nc(-c2ccco2)c(-c2ccco2)s1)c1c(F)cccc1Cl
Result: -14.8

Request: Input O=C(CCCc1ccccc1)Nc1nncs1
Result: 0.92
